Measured target: NADPH oxidase 2 (Homo sapiens) (UniProt P04839)
Sequence (P04839 whole entry, looked up): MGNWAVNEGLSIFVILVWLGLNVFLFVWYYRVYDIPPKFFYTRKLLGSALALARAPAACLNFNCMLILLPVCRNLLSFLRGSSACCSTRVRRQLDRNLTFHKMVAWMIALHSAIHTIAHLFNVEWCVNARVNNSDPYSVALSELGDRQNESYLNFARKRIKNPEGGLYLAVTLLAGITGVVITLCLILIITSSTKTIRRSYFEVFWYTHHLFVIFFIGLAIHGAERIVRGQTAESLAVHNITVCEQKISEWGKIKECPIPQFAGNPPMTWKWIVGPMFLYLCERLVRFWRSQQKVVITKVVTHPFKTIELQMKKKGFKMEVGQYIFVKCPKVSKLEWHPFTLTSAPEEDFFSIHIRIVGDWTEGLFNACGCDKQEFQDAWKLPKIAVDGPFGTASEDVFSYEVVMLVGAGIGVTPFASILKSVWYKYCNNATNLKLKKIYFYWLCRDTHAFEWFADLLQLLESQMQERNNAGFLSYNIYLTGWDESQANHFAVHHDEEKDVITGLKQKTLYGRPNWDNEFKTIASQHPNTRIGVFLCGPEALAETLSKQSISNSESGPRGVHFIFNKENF
Method notes: NOX2-dependent H2O2 signal modulators, primary screen, NOX inhibitor project, cell-based, HEK293-NOX2, PMA-stimulated, Amplex Red fluorescence (AID 1159); further: test concentration not given here
Assay context: 45 min, higher = more signal, called active from +8 up or from −8 down
Parameter: z-score
Keep it simple and answer with nothing but the number.

Reference set, count: 4
>  <Compound>
C=CCNC(=O)[C@H]1[C@@H]2C(=O)O[C@@H](c3ccccc3)[C@@H](c3ccccc3)N2[C@@H](c2ccc(O)cc2)[C@]12C(=O)N(C(=O)OCCOC)c1ccc(C#CCCO)cc12

>  <Observed result>
0.74

$$$$
>  <Compound>
O=c1cccc(CCc2ccccc2)o1

>  <Observed result>
0.378

$$$$
>  <Compound>
O=C1C=CC(=O)[C@@H]2CC(COc3ccccc3)=C3[C@@H](CCc4ccccc4)OB(O)C[C@@H]3[C@H]12

>  <Observed result>
-0.511

$$$$
>  <Compound>
COCCOC(=O)N1C(=O)[C@@]2(c3cc(C#CC4(O)CCCCCC4)ccc31)[C@H](C(=O)N1CCCCCCC1)[C@H]1C(=O)O[C@H](c3ccccc3)[C@H](c3ccccc3)N1[C@@H]2c1ccccc1OCCO

>  <Observed result>
0.528

$$$$

Q: // fetch z-score; item: CC(C)(C)N1CC=CC23O[C@@H]4/C=C\CCCOC(=O)C4[C@H]2C(=O)N(CCO)[C@@H]3C1=O (stereo not given in full) ; system: NADPH oxidase 2 (Homo sapiens) (UniProt P04839)
A: 1.58

====

# key: entry, value: z-score
Method notes: A549 cell viability effects, profiling panel, calcein-AM fluorescence, 48 h, basal (AID 1162); further: test concentration not given here
Assay context: higher = more signal
// print number alone

Worked cases, z-score given:
>  <Compound>
COCCOC(=O)N1C(=O)[C@@]2(c3cc(C#CCC(C(=O)OC)C(=O)OC)ccc31)[C@H](c1ccccc1OCCO)N1[C@H](c3ccccc3)[C@H](c3ccccc3)OC(=O)[C@H]1[C@@H]2C(N)=O

>  <z-score>
0.597

$$$$
>  <Compound>
O=C1[C@]2(CO)C=C(Br)[C@@H](C[C@@H]2c2ccccc2)[C@@]12CO2

>  <z-score>
-0.425

$$$$
>  <Compound>
CCOC(=O)C[C@H]1[C@H](OC(=O)c2ccc(-c3ccccc3)cc2)[C@@H](NC(=O)Cc2ccc(OC)cc2)c2cc(OCCCO)ccc2N1C(=O)c1ccc2ccccc2n1

>  <z-score>
-0.315

$$$$
>  <Compound>
O=C(CCN1CCOCC1)c1cccc(O)c1

>  <z-score>
0.867

$$$$

Q: Determine from records and report z-score for `Cc1ccc(S[C@]2(C(=O)NC3CC3)CC(=O)N(Cc3ccccc3)[C@@H]2c2ccc(CO)cc2)cc1`
A: 1.29

Q: Determine from records and report z-score for `CC(C)CNC(=O)[C@@H]1c2ccccc2C(=O)N(Cc2cc(C(F)(F)F)cc(C(F)(F)F)c2)[C@H]1c1ccc(CO)cc1`
A: 0.099

Q: Quickly give me recorded z-score for `CC(C)C(=C=CC[C@H](O)c1cccc(OCCO)c1)C[C@H](O)COCc1ccccc1`
A: -0.0353

Q: Indicate the recorded z-score value for this compound: C=CCC(OC(C)=O)[C@@H]1[C@@H](N(Cc2ccc(-c3cccc(C(F)(F)F)c3)o2)C(=O)c2ccc(C)cc2)c2cc(OCCCO)ccc2N1C(=O)c1ccc(-c2ccccc2)cc1 (stereo partly drawn)
A: 1.18

Data origin: PubChem BioAssay
